Test system: NeNaC8
Construct: full length, homomeric in Xenopus laevis oocytes (pRSSP vector, cRNA)
test: two-electrode voltage clamp, Xenopus oocytes
Type: cell-based, Nematostella vectensis
condition-label: channel opened by bath with 100 nM Ca2+; -70 mV; n = 11; read-out: Apparent IC50
pIC50: −log10 of the molar value.
attribute-measured: pIC50

INSERT INTO measurements (compound, test_value) VALUES
  ('N=C(N)NC(=O)c1nc(Cl)c(N)nc1N [amiloride]', 3.51);
